Measured values drawn from ChEMBL document CHEMBL1201862 for this set.

- Test system: SNB-19
- test-name: NCI tumour cell line growth inhibition, 48 h
The source made the active and inactive calls. Cut-off read from the data, not from the text of the source: active = GI50 up to about 1.1 µM and inactive = higher.
measured-metric: GI50

Consider the reported GI50 for these compounds:
1) O=[N+]([O-])c1ccc2c(c1)n1c(N3CCCC3)[n+]3ccccc3c1c1c3ccccn3c(N3CCCC3)[n+]21.[O-][Cl+3]([O-])([O-])[O-].[O-][Cl+3]([O-])([O-])[O-]
45 µM (inactive)
2) c1ccc(SC2(Sc3ccccc3)CCCC2)cc1
> 100 µM (inactive)
3) [N-]=[N+]=CC(=O)OC1CCOCC1
> 100 µM (inactive)

Please report GI50 for every entry that follows.
1. CCOC(=O)C(C)c1nc2ccc(C(F)(F)F)cc2[nH]c1=O (stereo not given)
2. CC(=O)NCC1OC2COC(c3ccccc3)OC2C2N=C(c3ccccc3)OC12 (stereo not given)

OUTPUT:
["> 100 µM (inactive)", "> 100 µM (inactive)"]
